# credit: patent US20160200799A1

molecular target: Influenza virus A/Suita/1/2009pdm (H1N1 2009 pandemic) (Influenza A virus A/Suita/1/2009pdm (H1N1pdm)); experiment: cell-based or functional assay
endpoint name: Neutralizing activity (%) at 250 µg/ml

1. Group 38 representative clone F082-338, Fab-PP-type antibody (Fab, V domains shown) VH: QVQLQESGAEVKKPGSSVKVSCKASGGPFRSHAISWVRQAAGQGLEWMGGITAVFGTANYAQKFQGRVTITADESTNIVSMELSSLRSEDTAIYYCARSLGYHTQYNGMDVWGQGTTVTVSS VL: DVVMTQSPSSVSASVGDRVTITCRASQGISSWLAWYQQKPGKAPKLLIYAASSLQSGVPSRFSGSGSGTDFTLTISSLQPEDFATYYCQQANSFPITFGQGTRLEIK : 97.7
2. Group 37 representative clone F083-311, Fab-PP-type antibody (Fab, V domains shown) VH: QVQLVQSGSEVKKPGSSVKVSCKASGGIFRTNAISYVRQAPGQGLEWMGGITAIFGTPNYAQKFQGRVTIIADESTSTVYMELGSLTSEDTAVYYCATSGTYYVSYFDSWGQGTLVTVSS VL: DIVMTQSPGTLTLSPGERATLSCRASQSLYSSHLAWYQQKPGQPPRLLIYGASTRAPGTPDRFSGSGSGTDFTLTITALDPEDSAVYYCQQYGSSPITFGQGTRLEIK : 100
